Measured Cmax values are reported for all entries that follow.
assay comment: Pharmacokinetics following a single oral dose in male Sprague-Dawley rats
Type: in vivo
experimental conditions: rat, nominal 5 mg/kg in 10% DMSO/10% cremophor/80% SWFI, plasma
Number only, in ng/mL; omit the unit.

Observe how each entry below is paired with its result.
Prompt: Any idea what Cmax was measured for COCc1nn(Cc2ccc3c(c2)CN(C)CC3)cc1C(=O)NCc1c(-n2cnc(C(F)F)n2)ccc(OC)c1F ?
Response: 78

Prompt: Any idea what Cmax was measured for COCc1nn(Cc2ccc3c(c2)CN(C)CC3)cc1C(=O)NCc1c(-n2cc(C)nn2)ccc(OC)c1F ?
Response: 134

Prompt: Any idea what Cmax was measured for COCc1nn(Cc2ccc3c(c2)CN(C(C)C)CC3)cc1C(=O)NCc1c(-n2ccc(C#N)n2)ccc(OC)c1F ?
Response: 24

Prompt: Any idea what Cmax was measured for COCc1nn(Cc2ccc3c(c2)CN(C)CC32CC2)cc1C(=O)NCc1c(-n2cc(C)nn2)ccc(OC)c1F ?
Response: 63

Next:
Prompt: Any idea what Cmax was measured for CCN1CCc2cc(Cn3cc(C(=O)NCc4c(-n5cc(C)nn5)ccc(OC)c4F)c(COC)n3)ccc2C1 ?
Response: 51

Prompt: Any idea what Cmax was measured for COCc1nn(Cc2ccc3c(c2)CN(C(C)C)CC3)cc1C(=O)NCc1c(-n2cnc(C(F)F)n2)ccc(OC)c1F ?
Response: 20

Prompt: Any idea what Cmax was measured for COCc1nn(Cc2ccc3c(c2)CN(C)CC3)cc1C(=O)NCc1c(-n2cc(C(F)F)nn2)ccc(OC)c1F ?
Response: 88

---

target under test: Human plasma kallikrein (Homo sapiens (Human), UniProt P03952)
Sequence (P03952 391-638): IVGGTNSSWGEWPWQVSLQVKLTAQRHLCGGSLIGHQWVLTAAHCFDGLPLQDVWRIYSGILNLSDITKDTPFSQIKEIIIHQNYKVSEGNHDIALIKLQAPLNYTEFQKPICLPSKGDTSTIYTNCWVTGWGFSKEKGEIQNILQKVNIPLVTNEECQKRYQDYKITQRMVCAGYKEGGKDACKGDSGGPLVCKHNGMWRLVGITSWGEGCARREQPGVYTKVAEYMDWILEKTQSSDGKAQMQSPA
Sequence (P03952 20-390 partner): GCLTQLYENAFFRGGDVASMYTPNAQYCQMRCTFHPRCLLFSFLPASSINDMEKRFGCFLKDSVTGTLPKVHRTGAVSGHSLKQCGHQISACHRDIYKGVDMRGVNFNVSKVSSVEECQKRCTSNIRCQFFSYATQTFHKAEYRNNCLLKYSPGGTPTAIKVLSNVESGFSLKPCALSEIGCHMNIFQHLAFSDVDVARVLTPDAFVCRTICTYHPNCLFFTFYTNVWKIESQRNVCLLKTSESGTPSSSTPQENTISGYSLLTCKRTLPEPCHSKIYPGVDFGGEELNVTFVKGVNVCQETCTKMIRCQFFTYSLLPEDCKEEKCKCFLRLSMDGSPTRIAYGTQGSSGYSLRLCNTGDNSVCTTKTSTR
assay comment: Determination of the IC50 for plasma kallikrein (fluorogenic substrate H-DPro-Phe-Arg-AFC)
experimental conditions: class symbols A-D, read-out: IC50 (human PKal)
Experimental: The ability of the compounds of formula (I) to inhibit plasma kallikrein may be determined using the following biological assay: Determination of the IC50 for Plasma Kallikrein Plasma kallikrein inhibitory activity in vitro was determined using standard published methods (see e.g. Johansen et al., Int. J. Tiss. Reac. 1986, 8, 185; Shori et al., Biochem. Pharmacol., 1992, 43, 1209; Sturzebecher et al., Biol. Chem. Hoppe-Seyler, 1992, 373, 1025). […]
pIC50: −log10 of the molar value.
recorded endpoint: pIC50

Observe how each entry below is paired with its result.
Prompt: Any idea what pIC50 was measured for COCc1nn(Cc2ccc3c(c2)CN(C)CC3)cc1C(=O)NCc1c(-n2nc(C)nc2C)ccc(OC)c1F [Example 29] ?
Response: > 8.00

Prompt: Any idea what pIC50 was measured for COCc1nn(Cc2ccc3c(c2)CN(C)CC3)cc1C(=O)NCc1c(-n2cnc(C)n2)ccc(OC)c1F [Example 4] ?
Response: > 8.00

Prompt: Any idea what pIC50 was measured for COCc1nn(Cc2ccc3c(c2)C(C)(C)N(C)C3)cc1C(=O)NCc1c(-n2cc(C)nn2)ccc(OC)c1F [Example 124] ?
Response: 7.00 to 7.52

Next:
Prompt: Any idea what pIC50 was measured for COCc1nn(Cc2ccc3c(c2)CCN(C2CC2)C3)cc1C(=O)NCc1c(-n2ccc(C#N)n2)ccc(OC)c1F [Example 49] ?
Response: 7.52 to 8.00

Prompt: Any idea what pIC50 was measured for COCc1nn(Cc2ccc3c(c2)CN(C)CC3(F)F)cc1C(=O)NCc1c(-n2cc(C)nn2)ccc(OC)c1F [Example 106] ?
Response: > 8.00

Prompt: Any idea what pIC50 was measured for COCc1nn(Cc2cnc3c(c2Cl)CCN(C)C3)cc1C(=O)NCc1c(-n2cc(C)nn2)ccc(OC)c1F [Example 64] ?
Response: 7.00 to 7.52

Prompt: Any idea what pIC50 was measured for COCc1nn(Cc2cc3n(n2)CCN(C)C3)cc1C(=O)NCc1c(-n2cc(C)nn2)ccc(OC)c1F [Example 70] ?
Response: 7.52 to 8.00

Reference for the values: patent US11613527B2
